experiment: Inhibition of HCV isolate HC-J4 NS5B deltaC21 polymerase; design: species or system Hepatitis C virus isolate HC-J4
pIC50: −log10 of the molar value.
pIC50 of 7 or higher: Criterion met. Under 7: Criterion not met.

{"Compound": "CC(C)CCc1c2c(c(O)c3ccccc13)C1=Nc3ccc(NS(C)(=O)=O)cc3S(=O)(=O)N1CO2", "Group Label": "Criterion not met"}
{"Compound": "COc1c(C2=NS(=O)(=O)c3cc(NS(C)(=O)=O)ccc3N2)c(OC)c2ccccc2c1CCC(C)C", "Group Label": "Criterion not met"}
{"Compound": "CC(C)CCc1c(O)c2c(c3ccccc13)OCN1C2=Nc2ccc(NS(C)(=O)=O)cc2S1(=O)=O", "Group Label": "Criterion not met"}
{"Compound": "COc1c(C2=NS(=O)(=O)c3cc(NS(C)(=O)=O)ccc3N2)cc(CCC(C)C)c2ccccc12", "Group Label": "Criterion met"}
{"Compound": "CC(C)CCC1(O)C(=O)C(C2=NS(=O)(=O)c3cc(NS(C)(=O)=O)ccc3N2)=C(O)c2ccccc21 (stereo unspecified)", "Group Label": "Criterion met"}

Just for reference, ChEMBL document CHEMBL1153632 is where these values come from.
